- assay.target: Adrenergic receptor alpha-2 (Rattus norvegicus) (UniProt P22086+P19328+P22909)
- method.description: Selectivity ratio is the antilog of the [3H]-yohimbine pKi minus the [3H]prazosin pKi
- Format: protein assay
Decide using Selectivity ratio: a value greater than or equal to 30 is T, a smaller one is F.

Solved entries (count: 2):
- compound: "COc1ccc2c(c1OC)CCN(CC1=NCCN1)C2.Cl.Cl"
  assigned.class: "F"
- compound: "Cl.Cl.Clc1ccc2c(c1)CCN(CC1=NCCN1)C2"
  assigned.class: "F"

Query: Identify whether the reported Selectivity ratio of the following compound is 30 or greater: COc1ccc(OC)c2c1CCN(CC1=NCCN1)C2C.Cl.Cl (stereo not given)
Reply: T

Query: Would you kindly repeat that for Cl.Cl.Clc1cccc2c1CN(CC1=NCCN1)CC2 ?
Reply: F
